# MIC annotations
# Test system: Klebsiella pneumoniae
# Protocol details: Antibacterial activity against clinical isolate Klebsiella pneumoniae 1678 assessed as reduction in microbial growth incubated for 24 hrs by broth microdilution method
# Type: functional

In the examples that follow, each entry is paired with its recorded MIC.
# Compound, Assayed target, Result
data = [
    ("CCn1cc(C(=O)O)c(=O)c2cc(F)c(N3CCN(Cc4cnc(C)c(O)c4CO)C(C)C3)c(F)c21.Cl (centres undefined)", "Klebsiella pneumoniae", "> 64 µg/mL"),
    ("COc1c(N2C[C@@H]3CCCN(Cc4cnc(C)c5c4COCO5)[C@@H]3C2)c(F)cc2c(=O)c(C(=O)O)cn(C3CC3)c12.Cl", "Klebsiella pneumoniae", "> 64 µg/mL"),
    ("COc1c(N2C[C@@H]3CCCN(Cc4nc(C)c5c(c4CO)COC(C)(C)O5)[C@@H]3C2)c(F)cc2c(=O)c(C(=O)O)cn(C3CC3)c12", "Klebsiella pneumoniae", "64 µg/mL"),
]

Sample Cc1nc(CO)c(CN2CCN(c3cc4c(cc3F)c(=O)c(C(=O)O)cn4C3CC3)CC2)c(CO)c1O.Cl ; MIC observed: 8 µg/mL
